# key: entry, value: melting point

I have this compound here, `CCCc1ccc(S(=O)(=O)Nc2ccc3oncc3c2)cc1` , and I need its recorded melting point. 130 to 131 °C

----------
measurement-type: melting point

| compound | reported-value |
| --- | --- |
| CC1(C)C=C(C(O)CN)c2ccccc21 (centres undefined) | 93 °C |
| Brc1ccccc1Cc1nc(-c2ccncc2)cs1 | 114 to 116 °C |
| C=CCn1c(SC(Cl)=C(Cl)C#N)nnc1C(F)(F)F | 45 to 48 °C |
| CCc1cc(Cc2cc(CC)c(N=C=O)c(CC)c2)cc(CC)c1N=C=O | 56 to 57 °C |
| COCCOc1ccc(CCC2(O)CN3CCC2CC3)cc1 (centres undefined) | 116 to 117 °C |

I have this compound here, `CC(=O)Nc1cc(I)ccc1Sc1ccc([N+](=O)[O-])cc1[N+](=O)[O-]` , and I need its recorded melting point. 224 to 226 °C

Also COc1ccc2c(c1)N(Cc1ccccc1)C(=O)[C@H]1CCC[C@H]1N2C(=O)CN1C(=O)c2ccccc2C1=O (relative stereo) , if possible. 244 to 245 °C

Also CCOC(=O)CCC(C)Oc1ccc2c(c1)C(N(CC)S(C)(=O)=O)CC(C)(C)O2 (centres undefined) , if possible. 65 to 67 °C
